Reported IC50, fractalkine induced chemotaxis values follow for various binders
tested_on: T1, human CX3CR1 (human, UniProt P49238 1-355)
T1 sequence: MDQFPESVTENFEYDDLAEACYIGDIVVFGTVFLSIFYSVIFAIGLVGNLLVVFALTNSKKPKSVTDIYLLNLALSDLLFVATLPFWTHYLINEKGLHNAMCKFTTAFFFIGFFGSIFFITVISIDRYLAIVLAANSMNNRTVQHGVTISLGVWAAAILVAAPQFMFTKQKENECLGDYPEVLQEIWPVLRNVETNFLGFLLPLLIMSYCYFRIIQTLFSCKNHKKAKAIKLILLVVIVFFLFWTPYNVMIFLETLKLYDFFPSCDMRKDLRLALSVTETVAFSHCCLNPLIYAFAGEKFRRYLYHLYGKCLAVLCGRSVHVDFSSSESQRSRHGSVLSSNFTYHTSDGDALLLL
test: cell-based or functional assay
The answer should read as a number with its unit following.

CX3CR1BII016 (VHH, expressed in E. coli as described for the monovalent VHHs) EVQLVESGGGSVQAGESLRLSCAASGSIFSSNAMAWYRQAPGKQRDLVAVINSVGITKYADSVKGRFTISGDNAKNTVYLQMNSLKPEDTAVYYCTSDARRGWDTRYWGQGTQVTVSSGGGGSGGGGSGGGGSGGGGSGGGGSGGGGSGGGGSEVQLVESGGGSVQAGESLRLSCAASGSIFSSNAMAWYRQAPGKQRDLVAVINSVGITKYADSVKGRFTISGDNAKNTVYLQMNSLKPEDTAVYYCTSDARRGWDTRYWGQGTQVTVSS; 2 nM
CX3CR1BII019 (VHH, expressed in E. coli as described for the monovalent VHHs) EMQLVESGGGSVQAGESLRLSCAASGSIFSSNAMAWYRQAPGKQRDLVALINSVGITKYADSVKGRFTISRDNAKNTVYLQMNSLKPEDTAVYYCTSDGRRGWDTRYWGQGTQVTVSSGGGGSGGGGSGGGGSGGGGSGGGGSGGGGSGGGGSEMQLVESGGGSVQAGESLRLSCAASGSIFSSNAMAWYRQAPGKQRDLVALINSVGITKYADSVKGRFTISRDNAKNTVYLQMNSLKPEDTAVYYCTSDGRRGWDTRYWGQGTQVTVSS; 2 nM
CX3CR1BII009 (VHH, expressed in E. coli as described for the monovalent VHHs) KVQLVESGGGLVQPGGSLRLSCATSGTIFSNNAMGWYRQAPGKKRDLVASISSSGSTNYADSVKGRFTVSRDNDKNTGYLQMNSLKPEDTGVYYCTLDARRGWNTAYWGQGAQVTVSSGGGGSGGGGSGGGGSGGGGSGGGGSGGGGSGGGGSEVQLVESGGGLVQAGGSLRLSCVASGRTFSSYAMGWFRQAPGKERAFVAGISGSASRKYYADSVKGRFTVSRDNARNTVYLQMNSLKPEDTAVYYCAASNSYPKVQFDYYGQGTQVTVSS; 20 nM
CX3CR1BII020 (VHH, expressed in E. coli as described for the monovalent VHHs) EVQLVESGGGSVQAGESLRLSCAASGSIFSSNAMAWYRQAPGKQRDLVAGINSVGITKYADSVKGRFTISRDNAKNTAYLQMNSLKPEDTAVYYCTSDPRRGWDTRYWGQGTLVTVSSGGGGSGGGGSGGGGSGGGGSGGGGSGGGGSGGGGSEVQLVESGGGSVQAGESLRLSCAASGSIFSSNAMAWYRQAPGKQRDLVAGINSVGITKYADSVKGRFTISRDNAKNTAYLQMNSLKPEDTAVYYCTSDPRRGWDTRYWGQGTLVTVSS; 2 nM

Please turn your attention to the following entry.
[in] Please report the recorded IC50, fractalkine induced chemotaxis for CX3CR1BII018 (VHH, A647 label where used as labeled competitor (Example 14), expressed in E. coli as described for the monovalent VHHs; also called A647-018; A647 labeled CX3CR1BII018) EVQLVESGGGSVQAGESLRLSCAASGSIFSSNAMAWYRQAPGKRRDLVAAINSVGVTKYADSVKGRFTISRDNAKNTVYLQMNSLKPEDTAVYYCTSDPRRGWDTRYWGQGTQVTVSSGGGGSGGGGSGGGGSGGGGSGGGGSGGGGSGGGGSEVQLVESGGGSVQAGESLRLSCAASGSIFSSNAMAWYRQAPGKRRDLVAAINSVGVTKYADSVKGRFTISRDNAKNTVYLQMNSLKPEDTAVYYCTSDPRRGWDTRYWGQGTQVTVSS .
[out] 0.6 nM
